Target: hNPRA (Homo sapiens, UniProt P16066)
Sequence (P16066 33-1061): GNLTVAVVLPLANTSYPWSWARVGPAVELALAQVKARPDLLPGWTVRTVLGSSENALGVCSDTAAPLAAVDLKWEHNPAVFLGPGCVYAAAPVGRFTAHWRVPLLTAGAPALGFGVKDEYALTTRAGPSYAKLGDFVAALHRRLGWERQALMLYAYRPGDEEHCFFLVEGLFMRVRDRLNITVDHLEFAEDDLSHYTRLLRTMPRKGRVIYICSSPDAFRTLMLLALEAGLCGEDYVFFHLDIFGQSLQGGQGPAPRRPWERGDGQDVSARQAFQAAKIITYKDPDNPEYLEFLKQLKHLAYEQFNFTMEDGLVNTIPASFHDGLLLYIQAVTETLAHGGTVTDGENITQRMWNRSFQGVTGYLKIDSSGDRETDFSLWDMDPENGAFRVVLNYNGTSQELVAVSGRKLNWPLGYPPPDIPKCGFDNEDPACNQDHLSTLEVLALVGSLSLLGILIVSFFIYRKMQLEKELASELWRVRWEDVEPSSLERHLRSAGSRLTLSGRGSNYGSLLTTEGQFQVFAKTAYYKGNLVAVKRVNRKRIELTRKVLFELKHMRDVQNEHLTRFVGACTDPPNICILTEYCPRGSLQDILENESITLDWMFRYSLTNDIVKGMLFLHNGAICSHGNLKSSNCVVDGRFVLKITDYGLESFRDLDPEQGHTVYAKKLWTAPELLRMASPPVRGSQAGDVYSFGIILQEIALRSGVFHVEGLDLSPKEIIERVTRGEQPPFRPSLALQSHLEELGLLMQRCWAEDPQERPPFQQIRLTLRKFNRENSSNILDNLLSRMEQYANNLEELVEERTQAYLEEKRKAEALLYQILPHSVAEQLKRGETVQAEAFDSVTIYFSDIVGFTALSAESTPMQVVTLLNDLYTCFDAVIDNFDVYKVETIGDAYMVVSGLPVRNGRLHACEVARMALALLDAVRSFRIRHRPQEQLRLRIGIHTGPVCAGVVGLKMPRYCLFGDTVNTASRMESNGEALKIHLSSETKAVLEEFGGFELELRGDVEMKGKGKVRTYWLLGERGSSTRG
Test: NPRA Functional Cell Assay (cGMP HTRF, NPRA HEK JumpIn stable cells)
Details: cGMP production, 1 hour at 37° C., 10-point dose response
pEC50: −log10 of the molar value.
measured_metric: pEC50

- CC(C)(C)[C@H]1CCc2nc3sc(C(=O)N[C@H](CCNC4COC4)c4cccc(NS(C)(=O)=O)c4)cc3cc2C1 (racemic) [Example 21]: 5.75
- CC(C)(C)[C@H]1CCc2nc3sc(C(=O)N[C@H](CCN4CCC(O)CC4)c4ccc(N5CCC(O)CC5)nc4)nc3cc2C1 (racemic) [Example 189]: 5.86
- CN1CCC(NC(=O)c2cccc([C@@H](CCN3CCC(O)CC3)NC(=O)c3nc4cc5c(nc4s3)CC[C@H](C(C)(C)C)C5)c2)CC1 (racemic) [Example 141]: 6.59
